- tested target: 6-phosphogluconate dehydrogenase, decarboxylating (Homo sapiens)
- protocol: 6PGD enzyme inhibitors, primary screen, biochemical, human, recombinant enzyme, NADPH absorbance (AID 1159550)
- details: recombinant 6PGD, NADPH absorbance 341 nm; at 10 µM; active compounds read high
Active and inactive are the calls of the source.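 Rule for the calls: active = at least 20% inhibition of 6-phosphogluconate dehydrogenase activity; inactive = the rest.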
Reported inhibition values for a set of molecules
readout name: inhibition

| molecule | readout name | result |
| --- | --- | --- |
| CCC1(c2ccccc2)C(=O)NCNC1=O | inhibition | 14.9% (inactive) |
| CC(C)Oc1ccc2c(=O)c(-c3ccccc3)coc2c1 | inhibition | 8.55% (inactive) |
| C[C@]12CCC(=O)C=C1CC[C@@H]1[C@@H]2[C@@H](O)C[C@@]2(C)[C@H]1CC[C@]2(O)C(=O)CO | inhibition | -14.6% (inactive) |
| CCC(C)(C)C(=O)O[C@H]1C[C@@H](C)C=C2C=C[C@H](C)[C@H](CC[C@@H]3C[C@@H](O)CC(=O)O3)[C@H]21 | inhibition | 2.59% (inactive) |
| CN(C)CCOC(C)(c1ccccc1)c1ccccn1 (centres undefined) | inhibition | 1.67% (inactive) |
| COc1ccc(Cl)cc1C(=O)NCCc1ccc(S(=O)(=O)NC(=O)NC2CCCCC2)cc1 | inhibition | 12.3% (inactive) |
| CCCc1nc2c(C)cc(-c3nc4ccccc4n3C)cc2n1Cc1ccc(-c2ccccc2C(=O)O)cc1 | inhibition | 2.16% (inactive) |
| CN(C)CCC=C1c2ccccc2CCc2ccccc21 | inhibition | 6.7% (inactive) |
| O=C(c1ccccc1)c1ccc2n1CCC2C(=O)O (centres undefined) | inhibition | 6.58% (inactive) |
| CN(C)CCCN1c2ccccc2CCc2ccccc21 | inhibition | 2.5% (inactive) |
| NCc1ccc(S(N)(=O)=O)cc1 | inhibition | -1.59% (inactive) |
| CO[C@@]1(NC(=O)Cc2cccs2)C(=O)N2C(C(=O)O)=C(COC(N)=O)CS[C@@H]21 | inhibition | 8.52% (inactive) |
| Oc1ccc(/C=C/c2cc(O)cc(O)c2)cc1 | inhibition | 0.743% (inactive) |
| C[C@H]1C[C@@H]2[C@H]([C@@H](O)C[C@@]3(C)[C@H]2CC[C@]3(O)C(=O)CO)[C@@]2(C)C=CC(=O)C=C12 | inhibition | 12.4% (inactive) |
| Nc1nc2c(ncn2COCCO)c(=O)[nH]1 | inhibition | 18.2% (inactive) |
| O=C1CCC(N2C(=O)c3ccccc3C2=O)C(=O)N1 (centres undefined) | inhibition | -1.45% (inactive) |
| CC(C)(C)NC[C@H](O)COc1nsnc1N1CCOCC1 | inhibition | -2.5% (inactive) |
| COc1ccc2c(c1)c(CC(=O)O)c(C)n2C(=O)c1ccc(Cl)cc1 | inhibition | -5.45% (inactive) |
| Cc1noc(NS(=O)(=O)c2ccc(N)cc2)c1C | inhibition | -15.2% (inactive) |
| CC(C)(C)NCC(O)COc1cccc2c1C[C@H](O)[C@H](O)C2 (some centres undefined) | inhibition | 6.69% (inactive) |
| CCCCCN=C(N)N/N=C/c1c[nH]c2ccc(OC)cc12 | inhibition | -7.67% (inactive) |
| Nc1c2c(nc3ccccc13)CCCC2 | inhibition | -0.369% (inactive) |
| CS(=O)(=O)OCCCCOS(C)(=O)=O | inhibition | 1.77% (inactive) |
| C=C(CC)C(=O)c1ccc(OCC(=O)O)c(Cl)c1Cl | inhibition | 9.98% (inactive) |
| COc1ccccc1OCCNCC(O)COc1cccc2[nH]c3ccccc3c12 (centres undefined) | inhibition | 6.21% (inactive) |
| OC(CCN1CCCCC1)(c1ccccc1)C1CCCCC1 (centres undefined) | inhibition | 5.23% (inactive) |
| CCN(Cc1ccncc1)C(=O)C(CO)c1ccccc1 (centres undefined) | inhibition | -16.3% (inactive) |
| Cc1ncc([N+](=O)[O-])n1CC(C)O (centres undefined) | inhibition | -1.51% (inactive) |
| CCCCC1=NC2(CCCC2)C(=O)N1Cc1ccc(-c2ccccc2-c2nn[nH]n2)cc1 | inhibition | -3.55% (inactive) |
| N[C@@H](C(=O)N[C@@H]1C(=O)N2C(C(=O)O)=C(Cl)CS[C@H]12)c1ccccc1 | inhibition | -9.98% (inactive) |
| C[C@@H]1O[C@@H](OC[C@H]2O[C@@H](Oc3c(-c4ccc(O)c(O)c4)oc4cc(O)cc(O)c4c3=O)[C@H](O)[C@@H](O)[C@@H]2O)[C@H](O)[C@H](O)[C@H]1O | inhibition | 4.58% (inactive) |
| N[C@@H]1CONC1=O | inhibition | 6.28% (inactive) |
| CC(=O)S[C@@H]1CC2=CC(=O)CC[C@]2(C)[C@H]2CC[C@@]3(C)[C@@H](CC[C@@]34CCC(=O)O4)[C@H]12 | inhibition | 14.1% (inactive) |
| Cc1nc2ccccn2c(=O)c1CCN1CCC(C(=O)c2ccc(F)cc2)CC1 | inhibition | 0.157% (inactive) |
| CC1Cc2ccccc2N1NC(=O)c1ccc(Cl)c(S(N)(=O)=O)c1 (centres undefined) | inhibition | 0.53% (inactive) |
| CN(C)CCc1c[nH]c2ccc(C[C@H]3COC(=O)N3)cc12 | inhibition | 8.76% (inactive) |
| NS(=O)(=O)c1cc2c(cc1C(F)(F)F)NC(Cc1ccccc1)NS2(=O)=O (centres undefined) | inhibition | -18.8% (inactive) |
| CCN(CC)CCOC(=O)C1(C2CCCCC2)CCCCC1 | inhibition | 11.5% (inactive) |
| O=C1N=C(O)CN1/N=C/c1ccc(-c2ccc([N+](=O)[O-])cc2)o1 | inhibition | 13.4% (inactive) |
| CCCN(CCC)S(=O)(=O)c1ccc(C(=O)O)cc1 | inhibition | 0.15% (inactive) |
| CC[C@H]1CN2CCc3cc(OC)c(OC)cc3[C@@H]2C[C@@H]1C[C@H]1NCCc2cc(OC)c(OC)cc21 | inhibition | 6.15% (inactive) |
| Cc1onc(-c2ccccc2)c1-c1ccc(S(N)(=O)=O)cc1 | inhibition | -1.63% (inactive) |
| O=C1NC(=O)C(c2ccccc2)(c2ccccc2)N1 | inhibition | 6.59% (inactive) |
| OCCN(CCO)c1nc(N2CCCCC2)c2nc(N(CCO)CCO)nc(N3CCCCC3)c2n1 | inhibition | 11% (inactive) |

* * *

Reported red/green cell ratio (normalised) values for a set of molecules
- protocol: differential killing of epithelial or mesenchymal cells, primary screen, imaging, PC-3E GFP, TEM4-18 mCherry, co-culture (AID 1345086);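 note: normalised mesenchymal count divided by normalised epithelial count so high means epithelial killing; cells exposed to compound for 72 h before imaging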
- details: imaging cell counts, at 1 µM, actives lie on both sides, counts scaled to control wells, 1 = unselective

| molecule | red/green cell ratio (normalised) |
| --- | --- |
| COc1cc(NC(C)CCCN)c2ncccc2c1 (stereo unspecified) | 1.43 |
| COCCOC(=O)C1=C(C)NC(C)=C(C(=O)OC(C)C)C1c1cccc([N+](=O)[O-])c1 (stereo unspecified) | 1.09 |
| NS(=O)(=O)c1cc2c(cc1Cl)NCNS2(=O)=O | 0.89 |
| CCCc1nc2c(C)cc(-c3nc4ccccc4n3C)cc2n1Cc1ccc(-c2ccccc2C(=O)O)cc1 | 0.63 |
| CCc1cccc2c3c([nH]c12)C(CC)(CC(=O)O)OCC3 (stereo unspecified) | 1.13 |
| COC(=O)Nc1nc2ccc(C(=O)c3ccccc3)cc2[nH]1 | 1.27 |

* * *

- tested target: Calcium-activated potassium channel subunit alpha-1 (Homo sapiens) + Leucine-rich repeat-containing protein 26 (Homo sapiens) (UniProt Q12791+Q2I0M4)
- Sequence (Q2I0M4 whole entry, looked up, one chain of several): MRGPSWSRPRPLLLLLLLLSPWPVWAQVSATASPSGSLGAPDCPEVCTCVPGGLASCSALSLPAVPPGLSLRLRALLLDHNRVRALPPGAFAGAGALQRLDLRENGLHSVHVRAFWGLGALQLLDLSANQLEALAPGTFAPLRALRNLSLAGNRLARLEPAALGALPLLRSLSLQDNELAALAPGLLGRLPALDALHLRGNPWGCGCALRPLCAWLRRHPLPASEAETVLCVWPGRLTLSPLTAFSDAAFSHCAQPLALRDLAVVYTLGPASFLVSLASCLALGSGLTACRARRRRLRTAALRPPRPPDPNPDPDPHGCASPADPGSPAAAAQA
- protocol: modulators of BK channel variants, profiling panel, selectivity assay, cell-based, U2OS BacMam, thallium flux, beta subunits (AID 1259406);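 note: initial slope of Thallos dye fluorescence rise after thallium is added; log ratio against the mean of 0.3% DMSO vehicle wells on the same plate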
- details: F380Y/Slo1WT/gamma1, at 30 µM
Simple rule here: log fold change Tl+ flux less than 0.03 is YES, otherwise NO.

| molecule | assigned label |
| --- | --- |
| CN(C)CCN(Cc1ccccc1)c1ccccn1 | YES |
| COc1ccccc1OCC(O)COC(N)=O (stereo not drawn) | NO |
| CN(C)CC/C=C1\c2ccccc2COc2ccccc21 | YES |
| NCC(=O)CCC(=O)O | YES |
| CN(C)CCCN1c2ccccc2Sc2ccc(Cl)cc21 | YES |
| O=S(=O)(O)CCS | YES |
| CCN(CC)C(=S)SSC(=S)N(CC)CC | NO |
| CN1CCCC(n2nc(Cc3ccc(Cl)cc3)c3ccccc3c2=O)CC1 (stereo not drawn) | NO |
| OCCN1CCN(CCCN2c3ccccc3Sc3ccc(C(F)(F)F)cc32)CC1 | NO |
| CC(=O)CC(c1ccccc1)c1c(O)c2ccccc2oc1=O (stereo not drawn) | YES |
| CCCCCCNC(=O)n1cc(F)c(=O)[nH]c1=O | YES |
| NS(=O)(=O)c1cc2c(cc1Cl)NC=NS2(=O)=O | YES |
| NS(=O)(=O)c1cc2c(cc1C(F)(F)F)NCNS2(=O)=O | YES |
